Biological target: T1, human GPC3 on cells (human, UniProt P51654 25-554)
T1 construct: whole, on cells; over-expressed on CHOK1 cells or endogenous on HEPG2, Hep3B and Huh-7 hepatocellular carcinoma cells; the cell line is named under assay; also called GPC3-CHOK1 cells; human GPC3 over-expressed CHOK1 cells
Test: FACS, Huh-7 cells
endpoint: EC50 (µg/mL)
Numbers only, in µg/mL.

query: For 52H5D3B8-6#-VH1+VL1 (antibody, V domains shown, humanized) VH: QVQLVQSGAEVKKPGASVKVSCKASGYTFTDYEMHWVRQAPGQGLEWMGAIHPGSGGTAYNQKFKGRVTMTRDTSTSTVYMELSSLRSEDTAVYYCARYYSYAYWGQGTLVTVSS VL: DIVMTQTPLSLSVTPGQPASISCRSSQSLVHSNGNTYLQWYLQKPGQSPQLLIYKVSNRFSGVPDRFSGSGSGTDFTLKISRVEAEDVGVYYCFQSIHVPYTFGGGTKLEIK , what is its reported EC50?
result: 0.0362
